- subject-of-test: recombinant human HDAC1 (Homo sapiens (Human), UniProt Q13547)
- Sequence (Q13547 whole entry): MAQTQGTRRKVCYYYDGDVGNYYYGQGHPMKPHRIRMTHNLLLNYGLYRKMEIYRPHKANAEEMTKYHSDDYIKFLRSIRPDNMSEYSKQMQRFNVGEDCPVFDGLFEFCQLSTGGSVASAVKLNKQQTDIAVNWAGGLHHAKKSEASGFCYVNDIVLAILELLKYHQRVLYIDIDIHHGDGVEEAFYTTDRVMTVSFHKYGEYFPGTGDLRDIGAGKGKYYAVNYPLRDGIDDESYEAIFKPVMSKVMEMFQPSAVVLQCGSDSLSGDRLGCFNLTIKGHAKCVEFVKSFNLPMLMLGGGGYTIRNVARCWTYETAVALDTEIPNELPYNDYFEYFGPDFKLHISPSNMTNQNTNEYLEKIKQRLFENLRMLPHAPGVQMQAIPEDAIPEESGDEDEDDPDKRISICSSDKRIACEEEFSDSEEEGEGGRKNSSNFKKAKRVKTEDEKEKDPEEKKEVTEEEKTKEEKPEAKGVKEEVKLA
- test-description: Enzymatic screening, HDAC1 inhibition (fluorogenic FdL_G substrate)
- Type: biochemical
pIC50: −log10 of the molar value.
reported-property: pIC50

| compound | subject-of-test | result |
| --- | --- | --- |
| CN1CCN(c2ccc(-c3nnn(Cc4ccc(-c5nnc(C(F)F)o5)cc4)n3)cn2)CC1 | recombinant human HDAC1 (Homo sapiens (Human), UniProt Q13547) | < 3.70 |
| [2H]C([2H])(c1ccc(-c2nnc(C(F)F)o2)cc1)n1cc(-c2cccc(NC(=O)N3CCOCC3)c2)nn1 | recombinant human HDAC1 (Homo sapiens (Human), UniProt Q13547) | < 3.00 |
| Nc1nc2cc(-c3cnn(Cc4ccc(-c5nnc(C(F)F)o5)cc4)c3)ccc2[nH]1 | recombinant human HDAC1 (Homo sapiens (Human), UniProt Q13547) | < 3.00 |
| CCC[C@@H](c1ccc(-c2nnc(C(F)F)o2)cc1)n1cc(-c2ccc(N)nc2)nn1 [compound 250] | recombinant human HDAC1 (Homo sapiens (Human), UniProt Q13547) | < 3.70 |
| Fc1cc(-c2nnc(C(F)F)o2)cc(F)c1Cn1cc(-c2cccs2)nn1 | recombinant human HDAC1 (Homo sapiens (Human), UniProt Q13547) | < 3.70 |
| O=C1Nc2ccc(-c3cn(Cc4ccc(-c5nnc(C(F)F)o5)cc4)nn3)cc2C12CCNC2 (stereo not shown) | recombinant human HDAC1 (Homo sapiens (Human), UniProt Q13547) | < 3.70 |
| Nc1ccc(-c2noc(Cc3ccc(-c4nnc(C(F)F)o4)cc3F)n2)cc1 | recombinant human HDAC1 (Homo sapiens (Human), UniProt Q13547) | < 3.00 |
| FC(F)c1nnc(-c2ccc(Cn3cc(-c4ccc(NC5=NCCN5)cc4)nn3)cc2)o1 | recombinant human HDAC1 (Homo sapiens (Human), UniProt Q13547) | < 3.70 |
| FC(F)c1nnc(-c2ccc(Cn3nnnc3-c3cccc(-n4cccn4)c3)cc2)o1 | recombinant human HDAC1 (Homo sapiens (Human), UniProt Q13547) | < 3.70 |
| FC(F)c1nnc(-c2ccc(Cn3cnc(-c4ccc(NC5=NCCN5)cc4)c3)cc2)o1 | recombinant human HDAC1 (Homo sapiens (Human), UniProt Q13547) | < 3.70 |
